Tested on: Trichophyton benhamiae
procedure-summary: Antifungal activity against Trichophyton mentagrophytes MUCC 665 after 48 hrs by disc diffusion method
Assay type: functional, Arthroderma benhamiae
Residues, ends and D or L forms follow the SMILES beside them. *: point of attachment. X2 = O=C(c1cc(-c2nc3ccc([N+](=O)[O-])cc3[nH]2)ccc1O)*; X1 = Cc1cc2nc(-c3ccc(O)c(C(=O)*)c3)[nH]c2cc1C
Each entry below lists one item and its recorded inhibition zone (IZ) value.
Expressed in mm, but write only the number.

molecule	readout-unit	inhibition zone (IZ)
Cc1cc2nc(-c3ccc(O)c(C(=O)NCC(=O)N[C@@H](Cc4c[nH]c5ccccc45)C(=O)NCC(=O)N[C@@H](Cc4cnc[nH]4)C(=O)O)c3)[nH]c2cc1C (X1-GWGH-OH)	mm	16
COC(=O)CNC(=O)[C@H](CC(C)C)NC(=O)[C@@H]1CCCN1C(=O)[C@H](Cc1cnc[nH]1)NC(=O)c1cc(-c2nc3ccc([N+](=O)[O-])cc3[nH]2)ccc1O (X2-HPLG-OMe)	mm	15

Prompt: Need inhibition zone (IZ), item O=C(O)[C@@H]1CCCN1C(=O)[C@@H]1CCCN1C(=O)[C@@H]1CCCN1C(=O)c1cc(-c2nc3ccc([N+](=O)[O-])cc3[nH]2)ccc1O
Completion: 17

Prompt: Need inhibition zone (IZ), item COC(=O)[C@@H]1CCCN1C(=O)[C@@H](NC(=O)[C@H](Cc1ccccc1)NC(=O)c1cc(I)c(-c2nc3cc(C)c(C)cc3[nH]2)c(I)c1)C(C)C
Completion: 12

Prompt: Need inhibition zone (IZ), item COC(=O)[C@H](Cc1c[nH]c2ccccc12)NC(=O)c1cc(I)c(-c2nc3cc(C)c(C)cc3[nH]2)c(I)c1
Completion: 12

meta.source: ChEMBL document CHEMBL1146375
